- System: stress granules (FUS, eIF3, G3BP1) in HeLa Kyoto, HeLa BAC FUS-GFP and iPS FUS-GFP cells
- test_details: Screen for macromolecule and tissue specificity on stress granules of arsenate-stressed cells (Example 2)
- Assay type: cell-based, human
- setup_conditions: compound 1 μM, 5 μM or 25 μM for one hour, then 2 mM Potassium Arsenate 1 hour; confocal fluorescence imaging; FIGS. 5-10
- Method: In brief, three cell lines (HeLa Kyoto, HeLa comprising a bacterial artificial chromosome (BAC) encoding FUS-GFP, and induced pluripotent stem cells (iPS) expressing FUS-GFP) were separately grown in culture. […] After stress treatment, the cells were fixed with a final concentration of 3.7% Formaldehyde (FA) for 15 minutes at room temperature. […] For cells expressing FUS-GFP, GFP fluorescence was observed directly. […]
endpoint_label: Selectivity (Selective and Non-Selective Condensate Disrupters)

Here's what some known entries look like.
| compound | assayed_system | recorded_measurement |
| --- | --- | --- |
| COCCn1c2c([n+](Cc3cnccn3)c1C)C(=O)c1ccccc1C2=O.[Br-] [YM155 (Sepantronium Bromide), Sepantronium Bromide] | stress granules (FUS, eIF3, G3BP1) in HeLa Kyoto, HeLa BAC FUS-GFP and iPS FUS-GFP cells | eIF3-selective |
| CC1(C)CCC2=C(O1)c1ccccc1C(=O)C2=O | stress granules (FUS, eIF3, G3BP1) in HeLa Kyoto, HeLa BAC FUS-GFP and iPS FUS-GFP cells | eIF3-selective |
| Cn1cc(C2=C(c3cn(CCCSC(=N)N)c4ccccc34)C(=O)NC2=O)c2ccccc21 [Bisindolylmaleimide IX] | stress granules (FUS, eIF3, G3BP1) in HeLa Kyoto, HeLa BAC FUS-GFP and iPS FUS-GFP cells | eIF3-selective |
| Cc1cnc(Nc2ccc(N3CCN(C)CC3)cc2)nc1Nc1cccc(S(=O)(=O)NC(C)(C)C)c1 | stress granules (FUS, eIF3, G3BP1) in HeLa Kyoto, HeLa BAC FUS-GFP and iPS FUS-GFP cells | Non-selective |
| NC(=O)CCCCC1CCSS1 (stereo not drawn) [Lipoamide] | stress granules (FUS, eIF3, G3BP1) in HeLa Kyoto, HeLa BAC FUS-GFP and iPS FUS-GFP cells | Non-selective |

Name the reported Selectivity (Selective and Non-Selective Condensate Disrupters) value associated with the compound COc1ccc(-c2cc3c(C)nc(N)nc3n(C3CCC(OCCO)CC3)c2=O)cn1 (stereo not drawn)
Non-selective
